- assay.system: Nanoluciferase-BRD9 fusion protein (3×FLAG-NLuc-BRD9) in SYO-1 cells (Homo sapiens)
- Construct: expressed in transfected cells; host or cells: SYO-1
- Sequence (Q9H8M2 whole entry, the tested form may be a part): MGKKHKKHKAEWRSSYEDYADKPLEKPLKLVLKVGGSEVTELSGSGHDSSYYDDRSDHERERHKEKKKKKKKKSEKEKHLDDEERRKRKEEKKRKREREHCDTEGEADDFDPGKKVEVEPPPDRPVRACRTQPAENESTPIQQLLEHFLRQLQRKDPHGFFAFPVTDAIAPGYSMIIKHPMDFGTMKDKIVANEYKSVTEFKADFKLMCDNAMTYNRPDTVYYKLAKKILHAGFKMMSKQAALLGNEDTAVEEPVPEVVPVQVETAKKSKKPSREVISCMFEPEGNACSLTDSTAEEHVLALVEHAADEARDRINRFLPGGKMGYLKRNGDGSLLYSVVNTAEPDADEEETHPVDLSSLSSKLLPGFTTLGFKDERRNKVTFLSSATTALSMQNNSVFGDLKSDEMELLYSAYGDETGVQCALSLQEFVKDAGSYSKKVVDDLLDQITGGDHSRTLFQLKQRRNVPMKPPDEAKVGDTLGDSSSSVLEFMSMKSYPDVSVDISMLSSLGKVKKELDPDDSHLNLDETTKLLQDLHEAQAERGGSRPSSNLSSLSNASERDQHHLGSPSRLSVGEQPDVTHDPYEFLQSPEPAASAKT
- assay.procedure: SYO1 BRD9 NanoLuc Degradation Assay
- Format: cell-based
- measurement.conditions: 6 hours; SYO-1 cells expressing 3×FLAG-NLuc-BRD9; top dose 1 μM; read-out: SYO1 BRD9-NanoLuc degradation IC50
- Method: Procedure: A stable SYO-1 cell line expressing 3×FLAG-NLuc-BRD9 was generated. On day 0 cells were seeded in 30 μL media into each well of 384-well cell culture plates. The seeding density was 8000 cells/well. […] Nanoluciferase activity was measured by adding 15 μL of freshly prepared Nano-Glo Luciferase Assay Reagent (Promega N1130), shaking the plates for 10 minutes and reading the bioluminescence using an EnVision reader. […]
measured.attribute: DC50

Examples from the recorded data:
COc1cc(-c2cn(C)c(=O)c3cc(NC(=O)CCOCCOCCNc4ccc5c(c4)C(=O)N(C4CCC(=O)NC4=O)C5=O)ncc23)cc(OC)c1CN(C)C (stereo not shown) :: ≥ 1 µM
COc1cc(-c2cn(C)c(=O)c3cnc(NCCCCCOc4cccc5c4C(=O)N(C4CCC(=O)NC4=O)C5=O)cc23)c(OC)cc1CN(C)C (stereo not shown) :: ≥ 0.01 µM
COc1cc(-c2cn(C)c(=O)c3cnc(NC(=O)CCOCCOCCNc4cccc5c4C(=O)N(C4CCC(=O)NC4=O)C5=O)cc23)cc(OC)c1CN(C)C (stereo not shown) :: ≥ 0.1 µM
COc1cc(-c2cn(C)c(=O)c3cc(N(C)CC(=O)NCCCCCOc4cccc5c4C(=O)N(C4CCC(=O)NC4=O)C5=O)ncc23)cc(OC)c1CN(C)C (stereo not shown) :: ≥ 0.01 µM
COc1cc(-c2cn(C)c(=O)c3cnc(NCCCCCCCCNC(=O)COc4cccc5c4C(=O)N(C4CCC(=O)NC4=O)C5=O)cc23)cc(OC)c1CN(C)C (stereo not shown) :: ≥ 0.1 µM

Would you mind giving DC50 for every compound in the list below?
1. CNc1cc2c(=O)n(C)cc(-c3cc(OC)c(CN4CCN(C(=O)CCCOc5cccc6c5C(=O)N(C5CCC(=O)NC5=O)C6=O)CC4)c(OC)c3)c2cn1 (stereo not shown)
2. COc1cc(-c2cn(C)c(=O)c3cnc(N(C)C)cc23)cc(OC)c1CN1CC[C@H]1CN(C)Cc1cccc2c1C(=O)N(C1CCC(=O)NC1=O)C2=O (stereo partly shown) [Compound D2]
3. COc1cc(-c2cn(C)c(=O)c3cc(NC(=O)CCOCCOCCNc4cccc5c4C(=O)N(C4CCC(=O)NC4=O)C5=O)ncc23)cc(OC)c1CN(C)C (stereo not shown)
4. COc1cc(-c2cn(C)c(=O)c3cnc(N(C)C)cc23)cc(OC)c1CN1CC[C@H]1C(=O)N(C)Cc1cccc2c1C(=O)N(C1CCC(=O)NC1=O)C2=O (stereo partly shown)
5. COc1cc(-c2cn(C)c(=O)c3cnc(N(C)CCOCCOCCNc4cccc5c4C(=O)N(C4CCC(=O)NC4=O)C5=O)cc23)cc(OC)c1CN(C)C (stereo not shown)

Response:
1: < 0.01 µM; 2: ≥ 0.1 µM; 3: ≥ 1 µM; 4: ≥ 0.1 µM; 5: ≥ 0.1 µM

====

Consider the following molecules; for each one, report its DC50.
- assay.system: Nanoluciferase-BRD9 fusion protein (3×FLAG-NLuc-BRD9) in SYO-1 cells (Homo sapiens)
- Construct: expressed in transfected cells; host or cells: SYO-1
- assay.procedure: SYO1 BRD9 NanoLuc Degradation Assay
- Format: cell-based
- measurement.conditions: Table 6C; SYO-1 cells expressing 3×FLAG-NLuc-BRD9, 6 hours incubation, 1 μM top dose; read-out: SYO1 BRD9-NanoLuc degradation IC50

[2H]C([2H])([2H])n1cc(-c2cc(OC)c(CN3CCN(CCC4CCN(c5ccc6c(c5)C(=O)N(C5CCC(=O)NC5=O)C6)CC4)CC3)c(OC)c2)c2cc(N(C)C)ncc2c1=O (stereo not drawn) :: < 10 nM
COc1cc2c(-c3cc(OC)c(CN4CCC(CN5CCC6(CC5)CN(c5ccc7c(c5)C(=O)N(C5CCC(=O)NC5=O)C7)C6)CC4)c(OC)c3)cn(C)c(=O)c2cn1 (stereo not drawn) :: < 10 nM

Kindly review the next molecule as well.
Query: I am curious: what DC50 value has been reported for COc1cc(-c2cn(C)c(=O)c3cnc(C4CC4)cc23)cc(OC)c1CN1CC(Oc2ccc3c(c2)C(=O)N(C2CCC(=O)NC2=O)C3)C1 (stereo not drawn) ?
Response: < 10 nM
